- system: human C5 protein (human, UniProt P01031 19-673; P01031 678-1676)
- assay.procedure: cell-based or functional assay
Positions of bridges follow the written chain, without caps; N, C: chain ends. Non-standard residues stand in square brackets, D forms with d. Primed or numbered codes have the meaning given here. No end group written: not given here. mXylyl″ = bridging moiety between the two marked residues; mXylyl = bridging moiety between residues (mXylyl(i,j)); Trp(7-aza) = N[C@@H](Cc1c[nH]c2ncccc12)C(=O)O; Phg = N[C@H](C(=O)O)c1ccccc1; Tle = CC(C)(C)[C@H](N)C(=O)O; Nva = CCC[C@H](N)C(=O)O
recorded.endpoint: Avg. IC50, human hemolysis assay (complete human sera) (nM)
Answers are plain numbers, in nM.

Look up Avg. IC50, human hemolysis assay (complete human sera) for the entries below, preserving their order.
1. Ac-CVARFCD[Tle]Y[Trp(7-aza)]EYP[Phg][Nva]-NH2 (linker 1-6 via mXylyl″) [R3150]
2. MCVERFCDVYWE-NH2 (linker 2-7 via mXylyl) [R3043]

1: 32; 2: 934
